Biological target: T1, recombinant human IL-23 (p19/p40 heterodimer) (human, UniProt Q9NPF7 20-189; P29460 23-328)
T1 sequence (looked up) 1: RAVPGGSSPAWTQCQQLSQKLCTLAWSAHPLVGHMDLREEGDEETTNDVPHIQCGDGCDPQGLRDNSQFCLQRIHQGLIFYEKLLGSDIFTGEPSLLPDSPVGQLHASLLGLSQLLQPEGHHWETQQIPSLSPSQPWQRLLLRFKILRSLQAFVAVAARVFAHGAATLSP
T1 sequence (looked up) 2: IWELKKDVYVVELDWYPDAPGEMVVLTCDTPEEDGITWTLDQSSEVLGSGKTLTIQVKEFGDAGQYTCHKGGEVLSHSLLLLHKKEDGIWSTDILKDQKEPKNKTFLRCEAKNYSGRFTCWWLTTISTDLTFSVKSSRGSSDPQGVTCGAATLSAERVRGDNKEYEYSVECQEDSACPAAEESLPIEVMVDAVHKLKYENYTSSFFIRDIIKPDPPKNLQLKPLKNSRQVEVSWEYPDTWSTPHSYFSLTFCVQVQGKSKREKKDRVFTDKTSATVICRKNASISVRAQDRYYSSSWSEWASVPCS
Assay: cell-based or functional assay
QUANTITY KIND: Top % of inhibition, STAT3 activation in DB reporter cells (%)
Form entry: value (%) — number only.

• Hu-6 18006B* (recombinant mIgG2a) (antibody, V domains shown) VH: QVQLVQSGAEVKKPGASVKVSCKTSGYTFTYYGISWVRQAPGQGLEWMGLISAYNGNTNYGQKVQGRVTMTTDTSTSTAYMELRSLRSDDTAVYYCVTENINWRDAFDIWGQGTMVTVSS VL: EIVLTQSPDFQSVTPKEKVTITCRASQTIGSSLHWYQQKPDQSPKLLIKYASQSISGVPSRFSGSGSGTDFTLTINSLEAEDAAAYYCHQSSSLPYTFGQGTKLEIK = 99
• Hu-4 18006B (purified from hybridoma) (antibody, IgG2c, V domains shown) VH: QVHLVQSGAEVKKPGASVKVSCKASGYTFSSYGINWVRQAPGQGLEWMGWISAYSGNTDYSQHLQGRVTMTTDTSTNTAYMELRSLRSDDTAVYYCARASANWYDYFDPWGQGTLVTVSS VL: EIVLTQSPDFQSVTPKEKVTITCRASQTIGGSLHWYQQKPDQSPKLLITYASQSFSGVPSRFSGSGSGTDFTLTIHSLEAEDAATYYCHQSSILPYTFGQGTKLEIK = 99

Now consider a different binder.
For the binder Hu-5 18006B (antibody, IgG2b, V domains shown, Purified from hybridoma) VH: QLQLQESGPGLVKPSETLSLTCTVSGGSISSSSFYWGWIRQPPGKGLEWIGSIYYSGSTYYNPSLKSRVTISVDTSKNQFSLKLSSVTAADTAVYFCARHGVRGVIPHFDYWGQGTLVTVSS VL: QTVLTQEPSFSVSPGGTVTLTCGLNSGSVSTIYYPSWYQQTPGQAPRALIYSTNTRSSGVPDRFSGSILGNKAALTITGAQADDESDYYCVLFLGSGLVFGGGTKLTVL , give its reported Top % of inhibition, STAT3 activation in DB reporter cells.
99
